# assayInfo: Quantitative High-Throughput drug screen in 47 multiple myeloma cell lines against the NCATS MIPE library collection: KMS34_JCRB cell viability assay (AID 1918985); note: nearly all actives have a fitted effect of over 40% in size
# measurementConditions: KMS34 myeloma viability, CellTiter-Glo ATP luminescence, 48 h; series mostly up to 45.8 µM
Inconclusive results are not listed. Calls of active or inactive are those of the source. Calls come from the whole dose curve; as a rule, active = well fitted cell-killing curve with a large enough effect; inconclusive = small, poorly fitted or top-dose-only effect, or effect the other way; inactive = no such curve, though single readings can be large or run the other way.
Answer with one of the outcomes given here: 1 (active), -1 (inactive)

Recorded results for 8 compounds are shown here.
Cc1cc(CS(=O)(=O)c2ccccc2)cc(OCc2ccc(CN3CCC[C@H]3CO)cc2)c1 = -1
NC1(C(=O)N[C@@H](CCO)c2ccc(Cl)cc2)CCN(c2ncnc3[nH]ccc23)CC1 = 1
O=C(CC12CC3CC(CC(C3)C1)C2)Nc1cccc2nc(NCCNCCO)ccc12 = 1
CN(C)c1ccc(-c2nc3ncc(Cl)c(N4CCN(CC(=O)Nc5nccs5)CC4)c3[nH]2)cc1 = 1
COc1cc2ncn(-c3cc(OCc4ccccc4S(C)(=O)=O)c(C#N)s3)c2cc1OC = -1
CS(=O)(=O)c1ccc(C2=C(c3ccccc3)C(=O)OC2)cc1 = -1
CCCCC[C@H](O)C=C[C@H]1[C@H](O)CC(=O)[C@H]1CC=CCCCC(=O)O = 1
OC[C@H]1O[C@@H](Oc2ccc(O)cc2)[C@H](O)[C@@H](O)[C@H]1O = -1

Attention now turns to another entry.
Input line: What classification did CC1=C(C(=O)Nc2cc3cn[nH]c3cc2F)C(c2ccc(C(F)(F)F)cc2)CC(=O)N1 (centres undefined) end up with in this test?
Output line: -1

---

# targetOfAssay: Cytochrome P450 2C9 (Homo sapiens) (UniProt P11712)
# Sequence (P11712 whole entry, looked up): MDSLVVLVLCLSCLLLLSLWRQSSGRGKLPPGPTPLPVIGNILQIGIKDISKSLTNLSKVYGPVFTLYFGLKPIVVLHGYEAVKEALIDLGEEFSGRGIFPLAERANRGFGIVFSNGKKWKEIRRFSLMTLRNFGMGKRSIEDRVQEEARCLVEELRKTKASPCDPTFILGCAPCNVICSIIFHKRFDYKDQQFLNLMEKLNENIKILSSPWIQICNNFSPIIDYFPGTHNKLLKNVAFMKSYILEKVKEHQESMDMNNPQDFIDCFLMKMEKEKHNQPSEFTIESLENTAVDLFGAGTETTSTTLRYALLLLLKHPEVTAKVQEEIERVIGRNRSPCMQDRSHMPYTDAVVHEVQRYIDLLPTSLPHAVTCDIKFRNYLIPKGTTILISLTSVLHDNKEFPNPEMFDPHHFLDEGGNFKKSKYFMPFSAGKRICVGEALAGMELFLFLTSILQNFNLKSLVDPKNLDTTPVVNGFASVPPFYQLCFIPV
# assayInfo: Cytochrome P450 family 2 subfamily C member 9 (CYP2C9) small molecule antagonists: luciferase biochemical (cell-free) qHTS assay (AID 1645842); note: nearly all actives have a fitted effect of over 55% in size
# measurementConditions: P450-Glo CYP2C9 enzyme assay, luciferin luminescence; series mostly up to 57.4 µM
Results filed as inconclusive are left out. Activity calls are given as the source filed them. Calls come from the whole dose curve; as a rule, active = well fitted inhibition curve with a large enough effect in the repeat runs; inconclusive = weak or mixed curves; inactive = no such curve, though single readings can be large or run the other way.
Answer with one of the outcomes given here: active, inactive

Recorded results for 4 molecules are shown here.
Cc1nn(Cc2ccccc2Cl)c(C)c1CN(C)CC(O)COc1ccc(Cl)cc1 (stereo not given) = inactive
CN(C)CCOc1cc(-c2cn[nH]c2)ccc1NC(=O)C1COc2ccccc2O1 (stereo not given) = active
C[C@@H](N)c1ccc(C(=O)Nc2ccnc3[nH]ccc23)cc1 = inactive
COc1nccc(-c2c(-c3ccc(F)cc3)ncn2C2CCC(O)CC2)n1 (stereo not given) = inactive

Input line: What classification did CSc1cccc(Nc2ncc3cc(-c4c(Cl)cccc4Cl)c(=O)n(C)c3n2)c1 end up with in this test?
Output line: active

Input line: What classification did CC(C)(C)c1nc(-c2cccc(NS(=O)(=O)c3c(F)cccc3F)c2F)c(-c2ccnc(N)n2)s1 end up with in this test?
Output line: active

Input line: What classification did NS(=O)(=O)c1ccc(Nc2nc(OCC3CCCCC3)c3[nH]cnc3n2)cc1 end up with in this test?
Output line: active

Input line: What classification did COc1cc(Nc2nc3ccccc3nc2NS(=O)(=O)c2ccc(NC(=O)c3ccc(C)c(OC)c3)cc2)cc(OC)c1 end up with in this test?
Output line: active

Input line: What classification did NS(=O)(=O)c1cc(Cl)c(Cl)c(S(N)(=O)=O)c1 end up with in this test?
Output line: inactive

Input line: What classification did CCN1CCN(c2ccc(Nc3cc(N(C)C(=O)Nc4c(Cl)c(OC)cc(OC)c4Cl)ncn3)cc2)CC1 end up with in this test?
Output line: active

---

# assayInfo: qHTS of pediatric cancer cell lines to identify multiple opportunities for drug repurposing: Primary screen for Rh18 cells (AID 1347102); note: nearly all actives have a fitted effect of over 65% in size; note: potency is the fitted concentration of half-maximal effect
# measurementConditions: Rh18 rhabdomyosarcoma viability, CellTiter-Glo luminescence, 48 h; series mostly up to 46 µM
Inconclusive results are not listed. Active and inactive are the calls of the source. The call rests on the fitted dose curve; in most records, active means well fitted cell-killing curve with a large enough effect; inconclusive means small, poorly fitted or top-dose-only effect; inactive means flat fitted curve, though single readings scatter.
measuredMetric: Potency

Cc1cnc(-c2cc(N3CCN(C(=O)CCS(C)(=O)=O)CC3)ncc2Cl)c(C)c1 = inactive
O=C(O)c1nc(=O)[nH]c(=O)[nH]1 = inactive
CCCCCCCCCCCCCC(=O)N[C@H](CO)[C@H](O)c1ccc([N+](=O)[O-])cc1 = inactive
COc1ccc(C=CC(=O)Nc2ccccc2C(=O)O)cc1OC = inactive
CC(C)n1c(C=C[C@H](O)C[C@H](O)CC(=O)O)c(-c2ccc(F)cc2)c2ccccc21 = 5.9 µM (active)
Nc1ncnc2c1ncn2[C@@H]1O[C@H](CO)[C@@H](O)[C@@H]1O = 1.87 µM (active)

Input line: In one line, give reported Potency of the entry Cc1[nH]c(C=C2C(=O)Nc3ccc(S(=O)(=O)N(C)c4cccc(Cl)c4)cc32)c(C)c1C(=O)N1CCN(C)CC1 .
Output line: 23.5 µM (active)

Input line: In one line, give reported Potency of the entry CCOC(=O)[C@H]1O[C@H]1C(=O)N[C@@H](CC(C)C)C(=O)NCCC(C)C .
Output line: inactive

Input line: In one line, give reported Potency of the entry O=C(Nc1cccc(C(F)(F)F)c1)Nc1cc(S(=O)(=O)NC2CC2)ccc1-c1ccsc1 .
Output line: inactive

---

# assayInfo: qHTS of pediatric cancer cell lines to identify multiple opportunities for drug repurposing: Confirmatory screen for A673 cells (AID 1347110);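 note: cells exposed to compound for 48 h before the viability read; nearly all actives have a fitted effect of over 65% in size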
# measurementConditions: A673 Ewing sarcoma cell viability; series mostly up to 45.9 µM
# Procedure: Drug repurposing or repositioning has been offered as a strategy for drug development in oncology programs. […] [1] Shen, M et al. Quantitative high-throughput phenotypic screening of pediatric cancer cell lines identifies multiple opportunities for drug repurposing. […] Cells were assayed in growth media at a density of 500-1,000 cells/well. […] After a 15min incubation at room temperature, samples were analyzed for luminescence intensity using a ViewLux High-throughput CCD imager equipped with clear filters.
Results filed as inconclusive are left out. The source made the active and inactive calls. The call rests on the fitted dose curve; in most records, active means well fitted cell-killing curve with a large enough effect; inconclusive means small, poorly fitted or top-dose-only effect; inactive means flat fitted curve, though single readings scatter.
Answer with one of the outcomes given here: yes for active, no for inactive

COC(=O)Nc1ccc(-c2nc(N3CCOCC3)c3cnn(C4CCN(C(=O)OC)CC4)c3n2)cc1 = yes
Nc1ccn([C@@H]2O[C@H](CO)[C@@H](O)[C@H]2O)c(=O)n1 = yes
C[C@@H]1C[C@H]2[C@@H]3CCC4=CC(=O)C=C[C@]4(C)[C@@]3(F)[C@@H](O)C[C@]2(C)[C@@]1(O)C(=O)CO = no
C[C@@]1(c2cc(-c3cncnc3)c(F)cc2F)CCSC(N)=N1 = no
C[C@H](c1ccc(F)cc1CCCC(=O)O)N(c1cc(F)ccc1F)S(=O)(=O)c1ccc(Cl)cc1 = no

Input line: What classification did C[C@@H]1O[C@@H](O[C@H]2CC[C@@]3(C)[C@H](CC[C@@H]4[C@H]3C[C@@H](O)[C@]3(C)[C@@H](C5=CC(=O)OC5)CC[C@]43O)C2)C[C@H](O)[C@@H]1O[C@H]1C[C@H](O)[C@H](O[C@H]2C[C@H](O)[C@@H](O)[C@@H](C)O2)[C@H](C)O1 (stereo in doubt) end up with in this test?
Output line: yes

Input line: What classification did CN(C(Cc1ccc(OS(=O)(=O)c2cccc3cnccc23)cc1)C(=O)N1CCN(c2ccccc2)CC1)S(=O)(=O)c1cccc2cnccc12 (centres undefined) end up with in this test?
Output line: no

Input line: What classification did NC(N)=Nc1nc(CSCCC(N)=NS(N)(=O)=O)cs1 end up with in this test?
Output line: no

Input line: What classification did O=C(c1ccc(F)c(F)c1Nc1ccc(I)cc1F)N1CC(O)([C@H]2CCCCN2)C1 end up with in this test?
Output line: yes

Input line: What classification did COc1ccc(-c2ccc3ncc4c(c3c2)n(-c2ccc(N3CCNCC3)c(C(F)(F)F)c2)c(=O)n4C)cn1 end up with in this test?
Output line: yes

Input line: What classification did CC[C@H](NC(=O)[C@H](C)NC)C(=O)N1C[C@@H](O)C[C@H]1Cc1c(-c2[nH]c3cc(F)ccc3c2C[C@H]2C[C@H](O)CN2C(=O)[C@H](CC)NC(=O)[C@H](C)NC)[nH]c2cc(F)ccc12 end up with in this test?
Output line: yes

Input line: What classification did CO[C@H]1/C=C\O[C@@]2(C)Oc3c(C)c(O)c4c(O)c(c5c(nc6cc(C)ccn65)c4c3C2=O)NC(=O)C(C)=CC=C[C@H](C)[C@H](O)[C@@H](C)[C@@H](O)[C@@H](C)[C@H](OC(C)=O)[C@H]1C end up with in this test?
Output line: no

Input line: What classification did CC(C)CN(C[C@@H](O)[C@H](Cc1ccccc1)NC(=O)O[C@H]1CO[C@H]2OCC[C@H]21)S(=O)(=O)c1ccc(N)cc1 end up with in this test?
Output line: no

Input line: What classification did CC1=C(CC(=O)O)c2cc(F)ccc2C1=Cc1ccc(S(C)=O)cc1 (centres undefined) end up with in this test?
Output line: no
